- condition-parameters: in acetonitrile, 304.55 K
reported-property: solubility (mole fraction)
Just the number, please, no unit attached.

Param item = c1ccc2c(c1)sc1ccccc12 ; retrieve measured solubility (mole fraction).
0.0199

====

- condition-parameters: in 2-(2-butoxyethoxy)ethanol, 333.15 K
reported-property: solubility (mole fraction)
Just the number, please, no unit attached.

Param item = c1ccc2c(c1)sc1ccccc12 ; retrieve measured solubility (mole fraction).
0.28

====

- condition-parameters: in acetonitrile, 290.45 K
reported-property: solubility (mole fraction)

Param item = c1ccc2c(c1)sc1ccccc12 ; retrieve measured solubility (mole fraction).
0.0107

====

- condition-parameters: in sulfolane, 321.05 K
reported-property: solubility (mole fraction)
Just the number, please, no unit attached.

Param item = c1ccc2c(c1)sc1ccccc12 ; retrieve measured solubility (mole fraction).
0.144
